Assay: Displacement of UDP-fluorescein from non-reduced form of Mycobacterium tuberculosis UDP-galactopyranose mutase by fluorescence polarization assay
Metric: Kd (µM)
Numbers only, in µM.

Solved entries:
Molecule	Kd / µM
O=C(O)C(Cc1ccc(I)cc1)NC1NC(c2ccc(Cl)c(Cl)c2)=CS1 (stereo not drawn)	8
CCCCC#C/C=C1\Cn2c(c(I)c3ccccc32)C(=O)O1	66
C#CCn1c(C(=O)O)c(I)c2cc3c(cc21)OCO3	220
O=C1O/C(=C/I)Cn2c1c(I)c1ccccc12	2000
C[N+](C)(C)CC(=O)N/N=C/c1ccc(O)c(O)c1	3

Respectfully, I request Kd for each entry included below.
1. O=c1ccn([C@@H]2O[C@H](COP(=O)(O)OP(=O)(O)O[C@H]3O[C@@H]([C@H](O)CO)C(F)(F)C3(F)F)[C@@H](O)[C@H]2O)c(=O)[nH]1
2. CCCCC#C/C=C1\Cn2c(c(I)c3cc4c(cc32)OCO4)C(=O)O1
3. CCCCC#C/C=C1\Cn2c(c(I)c3cc(OC)ccc32)C(=O)O1

(A)
[53, 58.3, 61.3]

====

System: Mycobacterium tuberculosis
Test: Displacement of UDP-fluorescein from non-reduced form of Mycobacterium tuberculosis UDP-galactopyranose mutase by fluorescence polarization assay relative to control
Parameters: concentration or dose not given beside the values
Conditions: concentration not given here
Metric: inhibition (%)
One number for each entry, in %.

Item smiles	Metric	Result value
CC1=C(c2ccc(F)cc2)C(=O)O/C1=C\C(C)C	inhibition	9
COC(=O)c1cn(Cc2ccccc2)c2ccccc12	inhibition	5.1
CC1=C(c2ccncc2)C(=O)O/C1=C\C(C)C	inhibition	3
C#CCn1c(C(=O)O)c(I)c2cc(OC)ccc21	inhibition	15
C#CCn1c(C(=O)OC)cc2cc(F)ccc21	inhibition	0
COC(=O)c1[nH]c2cc3c(cc2c1I)OCO3	inhibition	23.1

(Q) Which value of inhibition has been reported for `COC(=O)c1cc2ccccc2[nH]1` in the records?
(A) 2

====

Give measured inhibition for each item. Keep answers brief.
Test system: Mycobacterium tuberculosis
Assay: Displacement of UDP-fluorescein from non-reduced form of Mycobacterium tuberculosis UDP-galactopyranose mutase by fluorescence polarization assay relative to control
Parameters: concentration or dose not given beside the values
Conditions: concentration not given here
Answers are plain numbers, in %.

Look over these answered cases.
Item smiles	System under test	inhibition (%)
CC1=C(c2cc3ccccc3o2)C(=O)O/C1=C\C(C)C	Mycobacterium tuberculosis	0
CC1=C(c2ccoc2)C(=O)O/C1=C\C(C)C	Mycobacterium tuberculosis	5.2
COC(=O)c1[nH]c2ccccc2c1I	Mycobacterium tuberculosis	11.5

Alright, here's another molecule for you.
(Q) Return reported inhibition; argument: `C/C(I)=C1/Cn2c(c(I)c3ccccc32)C(=O)O1`
(A) 14.9
